- condition: in sec-butanol, 323.15 K
measurement.kind: solubility (mole fraction)
Numbers only.

[in] What value of solubility (mole fraction) has been recorded for this entry: Nc1cc(C(=O)O)ccc1C(=O)O
[out] 0.0192

###

- condition: in n-butanol, 338.15 K
measurement.kind: solubility (mole fraction)
One number for each entry.

[in] # input compound: Nc1cc(C(=O)O)ccc1C(=O)O ; wanted: its solubility (mole fraction)
[out] 0.0189

###

- condition: in tert-butanol, 328.15 K
measurement.kind: solubility (mole fraction)
One number for each entry.

[in] Given the entry Nc1cc(C(=O)O)ccc1C(=O)O , report its measured solubility (mole fraction).
[out] 0.0351
